# Protocol: A549 cell viability effects, profiling panel, calcein-AM fluorescence, 48 h, basal (AID 1162); also: test concentration not given here
# Measurement context: higher = more signal
Measured z-score values are reported for all entries that follow.
Number only, please.

O=C1[C@H]2[C@H]3[C@H](O)[C@H](O)CC(=NOC[C@@H](O)COCc4ccco4)[C@@H]3CC[C@H]2C(=O)N1c1ccc(F)cc1F = -0.2
Cc1ccc(S[C@]2(C(=O)NCC(F)(F)F)CC(=O)N(Cc3ccccc3Cl)[C@@H]2c2ccc(CO)cc2I)cc1 = -1.08
CO[C@H]1COC(=O)CC=C[C@H](C)[C@@H](NS(=O)(=O)c2ccc(C)cc2)COC(=O)CC=C[C@@H]1C = 0.368

Suppose we examine the molecule "CCOC(=O)NN=C1C[C@@H](O)[C@@H](O)[C@@H]2[C@@H]3C(=O)N(C4CCCCC4)C(=O)[C@@H]3CC[C@H]12" ; what z-score value has been reported?
-0.392

What about "CCCNC(=O)OC[C@H]1O[C@H](CCON=CC[C@@H]2C=C[C@H](OC(C)=O)[C@@H](COC(C)=O)O2)C=C[C@@H]1Oc1ccc(OC)cc1" ?
0.51

###

# Tested on: Torsin-1A-interacting protein 1 (Homo sapiens)
# Protocol: LAP1 binders from COS7 cell lysate, primary screen, small-molecule microarray, 635/667 nm fluorescence (AID 1116)
# Measurement context: COS7-hLAP1 lysate binding, 635 nm fluorescence, higher = more signal
Measured composite z-score values are reported for all entries that follow.
Number only, please.

COCCOC(=O)N1C(=O)[C@@]2(c3cc(C#CCNC(N)=O)ccc31)[C@H](c1ccc(O)cc1)N1[C@H](c3ccccc3)[C@H](c3ccccc3)OC(=O)[C@H]1[C@@H]2C(=O)N1CCCCCCC1 = 0.774
CO[C@@H]1COC(=O)CC=C[C@@H](C)[C@H](OC)COC(=O)[C@H](COCc2ccccc2)NC(=O)CC=C[C@H]1C = 0.0597

Please look at the following molecule next.
Suppose we examine the molecule "CC(C)=NOCc1cccc(-c2cc(-c3ccccc3)no2)c1" ; what composite z-score value has been reported?
0.237

###

Measured composite z-score values are reported for all entries that follow.
# Protocol: anti-His antibody binders, primary screen, artefact control for SMM control protein annotation, biochemical, small-molecule microarray, 635 nm fluorescence (AID 1128);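 also: score merges feature fluorescence with signal-to-noise for each printed compound spot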
# Measurement context: anti-His Alexa647 antibody binding, higher = more signal
Number only, please.

The following compounds have reported results that may help.
CO[C@H]([C@@H](C)[C@H](OC)c1ccccc1)[C@H](C)[C@@H](OC)[C@H](C)C(C)=O = 1
CCCC[C@@H]1C[C@H]1[C@@H](NS(=O)(=O)c1cccc2cccnc12)c1ccc(-c2ccccc2)cc1 = 0.983

Please look at the following compound next.
Suppose we examine the compound CCOC(=O)[C@H](Cc1ccccc1)NC(=O)CCC1CC(OC(=O)NCCc2ccc(F)cc2)CC2(CCCC(COC(=O)NCC(c3ccccc3)c3ccccc3)O2)O1 (stereo partly drawn) ; what composite z-score value has been reported?
0.999

###

# Protocol: compound binding in COS7 lysate, probe aLAP1, primary screen, cell lysate, small-molecule microarray (AID 1124);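 also: lysate comes from COS7 cells expressing LAP1 and is applied at 0.3 µg/mL; score merges spot fluorescence near 667 nm with signal-to-noise over triplicate slides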
# Measurement context: probe aLAP1, fluorescence, higher = more signal
Measured composite z-score values are reported for all entries that follow.
Number only, please.

COc1ccc(-c2ccc3c(n2)CCCN3CC(O)CN2CCCc3nc(C)c(C)cc32)cc1 (stereo not given) = 0.677
COc1ccc([Si](C)(C)[C@H]2[C@H](CCO)O[C@@]3(C(=O)N(Cc4cccc(NC(=O)[C@H](C)O)c4)c4ccccc43)[C@@H]2C)cc1 = 0.335
CN1C(=O)C2C(C1=O)C1C=C(CCCO)C2C(c2ccc(CN3CCCC3)cc2)N1C (stereo not given) = 0.0357
CO[C@H]1COC(=O)[C@H](C)COC(=O)CC=C[C@@H](C)[C@H](OC)COC(=O)CC=C[C@@H]1C = -0.142
CCOC(=O)CCN1C(=O)[C@H]2[C@H]3[C@H](O)C=CC(=O)[C@@H]3CC[C@H]2C1=O = -0.225

Suppose we examine the molecule "CCCC[C@@H]1C[C@H]1[C@@H](NS(=O)(=O)c1cccc2cccnc12)c1ccc(-c2ccccc2)cc1" ; what composite z-score value has been reported?
-0.222

What about "CC(C)[C@@H](OCc1ccccc1)[C@H](C)C=NO[C@H](C)c1cn([C@H](CO)Cc2ccccc2)nn1" ?
0.294

What about "C[C@H]1Cc2c(-c3ccccc3)nc3c(c2CO1)CN(CCOc1ccccc1)CC3" ?
0.292

What about "O=C1[C@H]2[C@H]3[C@H](O)[C@H](O)CC(=NO[C@@H]4O[C@H](CO)[C@@H](O)[C@H](O)[C@H]4O)[C@H]3CC[C@H]2C(=O)N1Cc1ccc2c(c1)OCO2" ?
0.0185

What about "CN(C)CCCNC(=O)[C@@H]1c2ccccc2C(=O)N(Cc2ccccc2)[C@H]1c1ccc(CO)cc1" ?
1.37

Source of measurements: PubChem BioAssay
